# target.desc: human GLP-1 receptor (human, UniProt P43220 24-463)
# assay.details: cell-based or functional assay
Starred links: 1 amine or outer side, 2 acyl side, 3 side chain; linkers in the order of their positions; H or OH if unused. Non-standard residues stand in square brackets, D forms with d. Groups on a side chain read outwards from the residue. No end group written: not given here. *: point of attachment. C20 diacid = O=C(O)CCCCCCCCCCCCCCCCCCC(=O)*; C18 diacid = O=C(O)CCCCCCCCCCCCCCCCC(=O)*; γGlu = O=C(O)[C@H](CCC(=O)[*:2])N[*:1]; αMeF = C[C@](N)(Cc1ccccc1)C(=O)O; (PEG)2 = polyethylene glycol 2; AEEA = NCCOCCOCC(=O)O; Aib = CC(C)(N)C(=O)O
metric.name: hGLP-1R EC50 (pM), cAMP
Answers are plain numbers, in pM.

Please review the entries below; each comes with its answer.
| binder | hGLP-1R EC50 (pM), cAMP |
| --- | --- |
| HSHGS[αMeF]TSDVSK[αMeF]LDSRAAK([AEEA-AEEA-γGlu-C18 diacid])D[αMeF]VQ[Aib]IANT-NH2 (not fully specified; also: S2: Aib per table) [Peptide 285] | 301 |
| H[Aib]HGS[αMeF]TSDVSK[αMeF]LDSRAAK([AEEA-AEEA-γGlu-γGlu-C20 diacid])D[αMeF]VQ[Aib]IANT-NH2 (not fully specified) [Peptide 305] | 211 |

The record that follows has no hGLP-1R EC50 (pM), cAMP shown yet.
-- ask Given the binder H[Aib]HGS[αMeF]TSDVSK[αMeF]LDSRAAK([(PEG)2-(PEG)2-γGlu-γGlu-C18 diacid])D[αMeF]VQ[Aib]IANT-NH2 [Peptide 258] , what is its reported hGLP-1R EC50 (pM), cAMP?
-- reply 34
